target: Human Cot (Homo sapiens (Human), UniProt P41279); assay: High Throughput Cot Biochemical Assay; settings: IC50 HTRF, Cot HTRF (TR-FRET) biochemical assay
Sequence (P41279 30-397): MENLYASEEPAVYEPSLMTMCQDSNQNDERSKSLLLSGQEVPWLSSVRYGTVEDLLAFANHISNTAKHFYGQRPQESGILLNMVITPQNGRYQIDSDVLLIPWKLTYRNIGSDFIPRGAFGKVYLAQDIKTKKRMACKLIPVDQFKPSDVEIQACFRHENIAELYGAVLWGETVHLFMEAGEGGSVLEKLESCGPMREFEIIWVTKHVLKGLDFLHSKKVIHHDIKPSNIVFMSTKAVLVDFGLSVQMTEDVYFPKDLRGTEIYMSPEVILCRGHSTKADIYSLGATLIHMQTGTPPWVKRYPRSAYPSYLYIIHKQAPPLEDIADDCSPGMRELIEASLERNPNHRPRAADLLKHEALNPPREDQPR
# satisfied = IC50 below 40 nM (exclusive); not satisfied = IC50 at/above 40 nM

In: I wonder whether [2H]C(Nc1cc(Cl)c2ncc(C#N)c(NCC(C)(C)C)c2c1)(c1cn(C2CC2)nn1)c1ccc(F)nc1C (stereo not shown) has IC50 below 40 nM. Can you tell?
Out: satisfied

Continuing:
In: I wonder whether "CCN1CCC(n2cc([C@@H](Nc3cc(Cl)c4ncc(C#N)c(Nc5ccc(F)c(Cl)c5)c4c3)c3ccc(C(F)(F)F)s3)nn2)CC1" has IC50 below 40 nM. Can you tell?
Out: satisfied

In: I wonder whether "N#Cc1cnc2c(Cl)cc(N[C@@H](c3cccnc3)c3c[nH]nn3)cc2c1Nc1cccc(Cl)c1F" has IC50 below 40 nM. Can you tell?
Out: satisfied

In: I wonder whether "N#Cc1cnc2c(Cl)cc(N[C@H](c3cn(C4COC4)nn3)c3csc(N4CCOCC4)n3)cc2c1Nc1ccc(F)c(Cl)c1" has IC50 below 40 nM. Can you tell?
Out: satisfied

In: I wonder whether "N#CCC[C@@H](Nc1c(C#N)cnc2c(Cl)cc(N[C@@H](c3cccnc3)c3cn(C4CC4)nn3)cc12)c1ccccc1" has IC50 below 40 nM. Can you tell?
Out: satisfied

In: I wonder whether "Cc1nc(F)ccc1[C@@H](Nc1cc(Cl)c2ncc(C#N)c(NCC(C)(C)C)c2c1)c1cn(C2(C(F)F)CC2)nn1" has IC50 below 40 nM. Can you tell?
Out: not satisfied

====

The entries below come with measured IC50/EC50 [nM]: EC50 (TNFα) values attached.
system: TNFα; assay: Cot Monocyte TNFα Cell Based Assay; details: second value of the cell IC50/EC50; LPS-stimulated human monocytes, TNFα by TR-FRET
I only need the number, in nM, no unit after it.

get_value(item= CCN1CCC(n2cc(CNc3cc(Cl)c4ncc(C#N)c(Nc5ccc(F)c(Cl)c5)c4c3)nn2)CC1 [Comparative Example 1, reference compound] , readout=IC50/EC50 [nM]: EC50 (TNFα)) returns 310

Continuing:
get_value(item= CCN1CCC(n2cc([C@@H](Nc3cc(Cl)c4ncc(C#N)c(Nc5ccc(F)c(Cl)c5)c4c3)c3cccnc3)nn2)CC1 [Example 362] , readout=IC50/EC50 [nM]: EC50 (TNFα)) returns 46

get_value(item= Cn1cc([C@@H](Nc2cc(Cl)c3ncc(C#N)c(Nc4ccc(F)c(Cl)c4)c3c2)c2cccnc2)nn1 [Example 406] , readout=IC50/EC50 [nM]: EC50 (TNFα)) returns 102

====

test system: TNFα; assay: Cot Monocyte TNFα Cell Based Assay; details: Homo sapiens, Monocyte, read-out: EC50 TNF, LPS-stimulated human monocytes, TNFα
ASSAY_METRIC: EC50 (nM)
I only need the number, in nM, no unit after it.

get_value(item= "[2H][C@](Nc1cc(Cl)c2ncc(C#N)c(NCC(C)(C)C)c2c1)(c1ccc(F)nc1)c1cn(C2CC2)nn1" , readout=EC50) returns 66

get_value(item= "[2H][C@](Nc1cc(Cl)c2ncc(C#N)c(NCC(C)(C)C)c2c1)(c1ccc(F)nc1)c1cn(CC(=O)NS(C)(=O)=O)nn1" , readout=EC50) returns 1000

get_value(item= "Cc1ocnc1[C@H](Nc1cc(Cl)c2ncc(C#N)c(Nc3ccc(F)c(Cl)c3)c2c1)c1cn(C2CCN(C(C)(C)C)CC2)nn1" , readout=EC50) returns 242

Continuing:
get_value(item= "Cc1nc(F)ccc1[C@H](Nc1cc(Cl)c2ncc(C#N)c(NCC(C)(C)C)c2c1)c1cn(C(C)(C)CF)nn1" , readout=EC50) returns 70

get_value(item= "CC(C)(C)CNc1c(C#N)cnc2c(Cl)cc(N[C@H](c3cn(C4(C(F)F)CC4)nn3)c3cccc4cnccc34)cc12" , readout=EC50) returns 51

get_value(item= "Cn1nnc2cccc([C@H](Nc3cc(C#N)c4ncc(C#N)c(NCC(C)(C)C)c4c3)c3cn(C4(C(F)(F)F)CC4)nn3)c21" , readout=EC50) returns 78

====

biological target: Human Cot (Homo sapiens (Human)); test: High Throughput Cot Biochemical Assay; conditions: IC50 HTRF, Cot HTRF (TR-FRET) biochemical assay
The entries below come with measured IC50 values attached.
I only need the number, in nM, no unit after it.

Worked examples, 2 molecules total:
get_value(item= Cn1cnc2cccc([C@H](Nc3cc(C#N)c4ncc(C#N)c(NCC(C)(C)C)c4c3)c3cn(C4(C(F)(F)F)CC4)nn3)c21 [Example 484] , readout=IC50) returns 3

get_value(item= Cc1nc(F)ccc1[C@H](Nc1cc(Cl)c2ncc(C#N)c(NCC(C)(C)C)c2c1)c1cn(C2(C(=O)N(C)C)CC2)nn1 [Example 553] , readout=IC50) returns 3

For the next question, use this molecule.
get_value(item= CCn1ccc2c([C@H](Nc3cc(Cl)c4ncc(C#N)c(NCC(C)(C)C)c4c3)c3cn(C4(C)CC4)nn3)cccc2c1=O [Example 773] , readout=IC50) returns 2

====

molecular target: Human Cot (Homo sapiens (Human), UniProt P41279); test: High Throughput Cot Biochemical Assay; settings: IC50 HTRF, Cot HTRF (TR-FRET) biochemical assay
ASSAY_METRIC: IC50 (nM)
I only need the number, in nM, no unit after it.

get_value(item= Cc1nc(F)ccc1[C@H](Nc1cc(Cl)c2ncc(C#N)c(NCC3(C(F)F)CC3)c2c1)c1cn(C2(C(F)(F)F)CC2)nn1 [Example 636] , readout=IC50) returns 69

====

The entries below come with measured pIC50 values attached.
target: Human Cot (Homo sapiens (Human), UniProt P41279); assay: High Throughput Cot Biochemical Assay; conditions: read-out: IC50 HTRF; Cot HTRF (TR-FRET KinEASE) biochemical assay, 400 μM ATP
For clarity, pIC50 is expressed as the negative log10 of concentration in mol/L.

Worked examples, 4 compounds total:
get_value(item= "COc1nccc2c([C@H](Nc3cc(C#N)c4ncc(C#N)c(NCC(C)(C)C)c4c3)c3cn(C45CC(C4)C5)nn3)cccc12" , readout=pIC50) returns 8.52

get_value(item= "COc1nccc2c([C@H](Nc3cc(Cl)c4ncc(C#N)c(NCC(C)(C)C)c4c3)c3nnn(C4(C(F)(F)F)CC4)c3F)cccc12" , readout=pIC50) returns 7.96

get_value(item= "COc1nccc2c([C@H](Nc3cc(Cl)c4ncc(C#N)c(NCC(C)(C)C)c4c3)c3cn(C45CC(C4)C5)nn3)cccc12" , readout=pIC50) returns 8.15

get_value(item= "COc1nccc2c([C@H](Nc3cc(C#N)c4ncc(C#N)c(NCC(C)(C)C)c4c3)c3cn(C4(C)CC4)nn3)cccc12" , readout=pIC50) returns 8.52

Continuing:
get_value(item= "CC(C)(CNc1c(C#N)cnc2c(C#N)cc(N[C@H](c3cn(C4(C(F)F)CC4)nn3)c3cccc4ncccc34)cc12)C(F)(F)F" , readout=pIC50) returns 8.52

get_value(item= "Cc1nc(F)ccc1[C@H](Nc1cc(Cl)c2ncc(C#N)c(NCC(C)(C)C(F)(F)F)c2c1)c1nnn(C2(C3CC3)CC2)c1F" , readout=pIC50) returns 8.30

====

target: Human Cot (Homo sapiens (Human)); test: High Throughput Cot Biochemical Assay; conditions: IC50 HTRF, Cot HTRF (TR-FRET) biochemical assay
pIC50: −log10 of the molar value.
Entry flag: condition met if pIC50 reaches 8; condition not met if it does not.

In: Given "CC(C)(O)[C@@H](Nc1c(C#N)cnc2c(Cl)cc(N[C@@H](c3cccnc3)c3c[nH]nn3)cc12)c1ccccc1" , state whether its pIC50 is at least 8.
Out: condition not met

In: Given "CC(C)(C)CNc1c(C#N)cnc2c(Cl)cc(N[C@H](c3cn(C4(C(F)F)CC4)nn3)c3cccc4ccncc34)cc12" , state whether its pIC50 is at least 8.
Out: condition met

In: Given "CC(C)(C)CNc1c(C#N)cnc2c(C#N)cc(N[C@H](c3cn(CC(F)(F)F)nn3)c3cccc4ncsc34)cc12" , state whether its pIC50 is at least 8.
Out: condition met

In: Given "[2H][C@](Nc1cc(C#N)c2ncc(C#N)c(N[C@H](CC)c3ccccc3)c2c1)(c1ccc(F)nc1)c1cn(C2CC2)nn1" , state whether its pIC50 is at least 8.
Out: condition met

====

The entries below come with measured EC50 values attached.
test system: TNFα; assay: Cot Monocyte TNFα Cell Based Assay; conditions: Homo sapiens, Monocyte, read-out: EC50 TNF, LPS-stimulated human monocytes, TNFα
I only need the number, in µM, no unit after it.

get_value(item= "CC(C)(C)CNc1c(C#N)cnc2c(Cl)cc(N[C@H](c3cn(C4(C(F)F)CC4)nn3)c3cccc4ccncc34)cc12" , readout=EC50) returns 0.075

get_value(item= "N#Cc1cnc2c(Cl)cc(N[C@@H](c3cccnc3)c3cn(C4COC4)nn3)cc2c1N[C@@H](CCO)c1ccccc1" , readout=EC50) returns 1.04

For the next question, use this molecule.
get_value(item= "Cc1nc(F)ccc1[C@H](Nc1cc(Cl)c2ncc(C#N)c(NCC3C(C)(C)C3(C)C)c2c1)c1cn(C2(C(F)F)CC2)nn1" , readout=EC50) returns 0.835
